Consider the following binders and their measured pKd readings.
study.target: alpha-PrP (human recombinant prion protein) (human, UniProt P04156 23-230)
method: fluorescence anisotropy; pH 5
Schema: pKd number; meaning minus log10 of the concentration expressed in molar units.

binder	pKd
NC-DNA (dsDNA) DNA 1: GACTTGTGGAAAATCTCTAGCAGTGCAT DNA 2: ATGCACTGCTAGAGATTTTCCACAAGTC	5.95

Bench note: what pKd did Lef-DNA (dsDNA) DNA 1: GAGCTTCAAAGGGTG DNA 2: CACCCTTTGAAGCTC show?
5.90
